// reported AUC for each item listed
experiment: AUC in dog at 0.3 mg/kg, iv; assay type: ADME, organism-based, Canis lupus familiaris; parameters: dose 0.3 mg/kg, route intravenous; conditions: plasma
OBSERVATION_TYPE: AUC (µM·h)

1) CC(C)(C)[C@@H](O)C(=O)N1CCC[C@H]1C(=O)NCc1cc(Cl)ccc1CN.O=C(O)C(F)(F)F : 10
2) CC(C)(C)[C@@H](O)C(=O)N1CCSC[C@H]1C(=O)NCc1cc(Cl)ccc1CN.O=C(O)C(F)(F)F : 1

----------
assay: Clearance in dog at 0.3 mg/kg, iv; assay type: ADME, organism-based, Canis lupus familiaris; parameters: dose 0.3 mg/kg, route intravenous; conditions: in vivo
Overview of recorded clearance for various compounds
OBSERVATION_TYPE: clearance (mL/min/kg)

1) CC(C)(C)[C@@H](O)C(=O)N1CCC[C@H]1C(=O)NCc1cc(Cl)ccc1CN.O=C(O)C(F)(F)F : 3.5
2) CC(C)(C)[C@@H](O)C(=O)N1CCSC[C@H]1C(=O)NCc1cc(Cl)ccc1CN.O=C(O)C(F)(F)F : 12.8

----------
target: Trypsin (Homo sapiens, UniProt P07477+P07478+P35030); assay: Inhibition of trypsin (unknown origin); type: protein assay
Entries annotated with measured Ki
OBSERVATION_TYPE: Ki (µM)

1. CC(C)(C)[C@@H](O)C(=O)N1CCS(=O)(=O)C[C@H]1C(=O)NCc1cc(Cl)ccc1CN.O=C(O)C(F)(F)F : 15
2. CC(C)(C)[C@@H](O)C(=O)N1CCNC[C@H]1C(=O)NCc1cc(Cl)ccc1CN.O=C(O)C(F)(F)F : 15
3. CC(C)(C)[C@@H](O)C(=O)N1CCC[C@H]1C(=O)NCc1cc(Cl)ccc1CN.O=C(O)C(F)(F)F : 5.6
4. CC(C)(C)[C@@H](O)C(=O)N1CCCC[C@H]1C(=O)NCc1cc(Cl)ccc1CN.O=C(O)C(F)(F)F : 10.6
5. CC(C)(C)[C@@H](O)C(=O)N1CCSC[C@H]1C(=O)NCc1cc(Cl)ccc1CN.O=C(O)C(F)(F)F : 9.4
6. CN1CCN(C(=O)[C@H](O)C(C)(C)C)[C@H](C(=O)NCc2cc(Cl)ccc2CN)C1.O=C(O)C(F)(F)F : 15
7. CC(C)(C)[C@@H](O)C(=O)N1CCOC[C@H]1C(=O)NCc1cc(Cl)ccc1CN.O=C(O)C(F)(F)F : 15

----------
target: Coagulation factor IX (Homo sapiens)
Sequence (P00740 47-191 limits assumed): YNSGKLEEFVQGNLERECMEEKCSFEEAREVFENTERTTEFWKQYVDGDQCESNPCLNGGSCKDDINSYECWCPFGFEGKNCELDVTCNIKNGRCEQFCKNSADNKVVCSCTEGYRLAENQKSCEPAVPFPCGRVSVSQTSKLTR
Sequence (P00740 227-461 limits assumed): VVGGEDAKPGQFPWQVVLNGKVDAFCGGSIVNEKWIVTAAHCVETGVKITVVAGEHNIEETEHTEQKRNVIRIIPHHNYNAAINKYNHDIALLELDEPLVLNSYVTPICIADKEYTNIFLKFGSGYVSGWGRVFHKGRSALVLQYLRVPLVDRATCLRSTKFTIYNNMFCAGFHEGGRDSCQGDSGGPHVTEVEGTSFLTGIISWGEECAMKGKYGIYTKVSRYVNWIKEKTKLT
OBSERVATION_TYPE: Ki (µM)

1) CC(C)(C)[C@@H](O)C(=O)N1CCOC[C@H]1C(=O)NCc1cc(Cl)ccc1CN.O=C(O)C(F)(F)F : 15

----------
biological target: Coagulation factor X (Homo sapiens)
Sequence (P00742 41-179 limits assumed): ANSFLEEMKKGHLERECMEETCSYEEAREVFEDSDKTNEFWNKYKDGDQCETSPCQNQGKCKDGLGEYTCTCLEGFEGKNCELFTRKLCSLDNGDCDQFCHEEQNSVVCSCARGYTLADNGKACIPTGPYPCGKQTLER
Sequence (P00742 235-488 limits assumed): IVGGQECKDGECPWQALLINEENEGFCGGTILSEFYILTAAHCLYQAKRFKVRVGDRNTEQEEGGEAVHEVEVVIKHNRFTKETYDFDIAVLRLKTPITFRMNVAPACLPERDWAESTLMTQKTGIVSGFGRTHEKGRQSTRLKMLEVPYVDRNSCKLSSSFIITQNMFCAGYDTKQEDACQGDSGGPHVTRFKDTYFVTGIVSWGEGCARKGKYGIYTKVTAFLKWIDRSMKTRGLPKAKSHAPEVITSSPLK
// reported Ki per item
OBSERVATION_TYPE: Ki (µM)

1. CC(C)(C)[C@@H](O)C(=O)N1CCC[C@H]1C(=O)NCc1cc(Cl)ccc1CN.O=C(O)C(F)(F)F : 1.4
2. CN1CCN(C(=O)[C@H](O)C(C)(C)C)[C@H](C(=O)NCc2cc(Cl)ccc2CN)C1.O=C(O)C(F)(F)F : 3.7
3. CC(C)(C)[C@@H](O)C(=O)N1CCNC[C@H]1C(=O)NCc1cc(Cl)ccc1CN.O=C(O)C(F)(F)F : 4.4
